Hey, just so you know, these numbers are from patent US20260152487A1.

# system: recombinant human PKM2 (Homo sapiens, UniProt P14618)
# Construct: His (N); purchased R&D Systems
# Sequence (P14618 2-531 limits assumed): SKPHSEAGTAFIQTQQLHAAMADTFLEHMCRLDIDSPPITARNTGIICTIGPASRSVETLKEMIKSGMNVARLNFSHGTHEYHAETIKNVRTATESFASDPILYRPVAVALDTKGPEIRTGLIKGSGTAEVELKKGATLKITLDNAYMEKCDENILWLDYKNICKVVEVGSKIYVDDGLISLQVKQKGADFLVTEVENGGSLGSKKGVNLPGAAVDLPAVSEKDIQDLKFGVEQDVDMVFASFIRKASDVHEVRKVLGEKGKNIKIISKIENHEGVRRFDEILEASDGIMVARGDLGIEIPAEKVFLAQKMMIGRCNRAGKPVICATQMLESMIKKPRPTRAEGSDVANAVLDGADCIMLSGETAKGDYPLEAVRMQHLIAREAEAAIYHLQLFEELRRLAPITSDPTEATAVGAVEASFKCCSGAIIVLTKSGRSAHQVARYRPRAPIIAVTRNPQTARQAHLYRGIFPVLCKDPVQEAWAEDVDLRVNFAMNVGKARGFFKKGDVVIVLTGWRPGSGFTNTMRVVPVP
# run_description: Human PKM2 activation assay (Kinase-Glo Plus luminescent detection of generated ATP)
# Assay type: biochemical
# measurement_conditions: recombinant human PKM2 activation; 4-parameter logistic fit; read-out: hPKM2 EC50
measured_property: pEC50
When answering, recall that pEC50 equals minus log10 of the concentration in mol/L, and write that number alone.

query: Looking for the measured pEC50 of COc1ccc(S(=O)(=O)c2ccc3c(=O)n(Cc4ccn(C5CC5)n4)ncc3c2)cc1 , can you help?
result: 7.56

query: Looking for the measured pEC50 of COc1cccc(Cn2ncc3cc(S(=O)(=O)c4cn[nH]c4)ccc3c2=O)n1 , can you help?
result: 6.82

query: Looking for the measured pEC50 of O=c1c2ccc(S(=O)(=O)c3ccc4occc4c3)cc2cnn1Cc1cc[nH]n1 , can you help?
result: 7.74

query: Looking for the measured pEC50 of COc1ccc(S(=O)(=O)c2ccc3c(=O)n(Cc4ccncc4O)ncc3c2)cc1 , can you help?
result: 6.09
